target: IP receptor (Homo sapiens, UniProt P43119); test: cAMP accumulation in CHO cells stably expressing the IP receptor (CHO-IP), PerkinElmer AlphaScreen assay; settings: 1 hour at room temperature, 4-parameter logistic fit
Sequence (P43119 whole entry): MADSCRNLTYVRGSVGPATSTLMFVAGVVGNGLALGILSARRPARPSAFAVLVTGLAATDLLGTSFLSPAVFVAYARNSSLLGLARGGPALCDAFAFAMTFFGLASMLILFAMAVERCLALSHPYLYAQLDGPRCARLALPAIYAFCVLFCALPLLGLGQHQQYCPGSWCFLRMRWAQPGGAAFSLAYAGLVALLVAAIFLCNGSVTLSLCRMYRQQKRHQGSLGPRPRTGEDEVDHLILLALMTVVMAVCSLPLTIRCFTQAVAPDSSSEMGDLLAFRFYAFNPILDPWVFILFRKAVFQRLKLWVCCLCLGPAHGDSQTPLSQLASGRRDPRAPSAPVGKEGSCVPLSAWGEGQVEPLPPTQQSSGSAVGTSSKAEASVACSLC
OBSERVATION_TYPE: EC50 (nM)

Known EC50 results, listed for orientation:
# COMPOUND, OBSERVATION_TYPE, UNIT_OF_MEASURE, TEST_RESULT
records = [
    ("CC1c2nc(-c3ccccc3)c(-c3ccccc3)nc2CCN1CCCCCCC(=O)O (racemic) [Example 1]", "EC50", "nM", 275),
    ("Cc1ccc(-c2nc3c(nc2-c2ccc(C)cc2)C(C)N(CCCCCC(=O)O)CC3)cc1 (stereo not drawn)", "EC50", "nM", 2),
    ("Cc1ccc(-c2nc3c(nc2-c2ccc(C)cc2)C(CCCCCCC(=O)O)NCC3)cc1 (racemic)", "EC50", "nM", 5.4),
    ("Cc1ccc(-c2nc3c(nc2-c2ccc(C)cc2)C(CCCCCC(=O)O)N(C)CC3)cc1 (racemic)", "EC50", "nM", 25.9),
    ("CC1c2nc(-c3ccccc3)c(-c3ccccc3)nc2CCN1CCCCCCC(=O)O (single isomer, unassigned) [Example 1(i)]", "EC50", "nM", 190),
]

P. Cc1ccc(-c2nc3c(nc2-c2ccc(C)cc2)C(CCCCCCC(=O)O)N(C)CC3)cc1 (stereo not drawn)
Q. Cc1ccc(-c2nc3c(nc2-c2ccc(C)cc2)C(CCCCCC(=O)O)NCC3)cc1 (racemic)
R. CC1c2nc(-c3ccccc3)c(-c3ccccc3)nc2CCN1CCCCCCC(=O)O (single isomer, unassigned) [Example 1(ii)]
S. Cc1ccc(-c2nc3c(nc2-c2ccc(C)cc2)C(C)N(CCCCC(=O)O)CC3)cc1 (stereo not drawn)
// smallest EC50 at index 0, largest at the end Please write the labels in the order that was asked for.
S, P, Q, R
(S: 1.5 nM, P: 2.3 nM, Q: 5 nM, R: 710 nM)
